endpoint-name: melting point

compound: C[C@@H]1CN(c2ccnc(-c3cccnc3)n2)C[C@H](C)N1c1ccnc([C@@H](C)O)n1
melting point: 61 to 70 °C
//
compound: C[C@@H](O)c1nccc(N2CCc3ncncc3C2)n1
melting point: 79 to 82 °C
//
compound: C[C@@H](OC(=O)Cc1nn(Cc2nc3cc(C(F)(F)F)ccc3s2)c(=O)c2ccccc12)c1nccc(N2CCN(c3cnc4ccccc4n3)CC2)n1
melting point: 108 to 112 °C

Input `Cc1cc(C)nc(N2[C@H](C)CN(c3ccnc([C@@H](C)O)n3)C[C@@H]2C)n1` , output reported melting point. 141.5 to 142.5 °C

Input `Cc1nc2c(c(-c3ccccc3)n1)CCN(c1ccnc([C@@H](C)O)n1)C2` , output reported melting point. 114 to 116 °C

Input C[C@@H](O)c1nccc(N2C[C@H]3CCC[C@@H](C2)N3c2ccnc([C@@H](C)O)n2)n1 (stereo in doubt) , output reported melting point. 151 to 158 °C

Input `C[C@@H](O)c1nccc(N2CCn3c(nnc3-c3ccc(-c4ccccc4)cc3)C2)n1` , output reported melting point. 123 to 125 °C

Input C[C@@H](O)c1nccc(N2CCc3cc(-c4ccsc4)ccc3C2)n1 (stereo in doubt) , output reported melting point. 125.5 to 127.5 °C

Input `C[C@@H](O)c1nccc(N2CCc3cnc(-c4ccccc4)nc3C2)n1` , output reported melting point. 72 to 74 °C

Input `C[C@@H](O)c1nccc(N2CCc3c(nc(-c4ccccc4)nc3-c3ccccc3)C2)n1` , output reported melting point. 73 to 75 °C

Input `C[C@@H](O)c1nccc(N2CCN(S(=O)(=O)/C=C/c3ccccc3)CC2)n1` , output reported melting point. 68 to 70 °C

Input `COc1nc(OC)nc(N2[C@H](C)CN(c3ccnc([C@@H](C)O)n3)C[C@@H]2C)n1` , output reported melting point. 187 to 188 °C

Input `C[C@@H]1CN(c2ccnc([C@@H](C)O)n2)C[C@H](C)N1C(=O)C1CCCCC1` , output reported melting point. 174 to 175 °C

---

endpoint-name: melting point

Look over these answered cases.
smiles-record: Cc1nc2c(c(Sc3ccccc3)n1)CCN(c1ccnc([C@@H](C)O)n1)C2
endpoint-name: melting point
reported-result: 103 to 105 °C

smiles-record: C[C@@H]1CN(C(=O)/C=C/c2cc3ccccc3o2)C[C@H](C)N1c1ccnc([C@@H](C)O)n1
endpoint-name: melting point
reported-result: 80 to 82 °C

smiles-record: C[C@@H]1CN(c2ccnc([C@@H](C)O)n2)[C@@H](C)CN1c1ccnc([C@@H](C)O)n1
endpoint-name: melting point
reported-result: 153 to 155 °C

smiles-record: Cc1nc2c(c(N3CCc4ccccc43)n1)CCN(c1ccnc([C@@H](C)O)n1)C2
endpoint-name: melting point
reported-result: 128 to 131 °C

smiles-record: C[C@@H](OC(=O)Cc1nn(Cc2nc3cc(C(F)(F)F)ccc3s2)c(=O)c2ccccc12)c1nccc(N2CCN(C(=O)/C=C/c3cccs3)CC2)n1
endpoint-name: melting point
reported-result: 105 to 109 °C

smiles-record: C[C@@H](O)c1nccc(N2CCc3ccc(S(=O)(=O)N(C)C)cc3C2)n1
endpoint-name: melting point
reported-result: 120.5 to 122 °C

smiles-record: C[C@@H](O)c1nccc(N2C[C@@H]3C[C@H]2CN3S(=O)(=O)N(C)C)n1
endpoint-name: melting point
reported-result: 110 to 111 °C

smiles-record: C[C@@H]1CN(c2ccnc([C@@H](C)O)n2)C[C@H](C)N1c1ccnc(N2CCN(C)CC2)n1
endpoint-name: melting point
reported-result: 181 to 182 °C

smiles-record: C[C@@H](O)c1nccc(N2CCC(C3CCN(c4ccnc([C@@H](C)O)n4)CC3)CC2)n1
endpoint-name: melting point
reported-result: 144 to 153 °C

smiles-record: C[C@@H](O)c1nccc(N2CCN(c3nc4ncccc4o3)[C@@H](C)C2)n1
endpoint-name: melting point
reported-result: 158 to 161 °C

Input `C[C@@H]1CN(c2ccnc([C@@H](C)O)n2)C[C@H](C)N1C(=O)CSc1ncccn1` , output reported melting point. 60 to 70 °C

Input `C[C@@H](O)c1nccc(N2CCn3c(nnc3-c3cc4ccccc4s3)C2)n1` , output reported melting point. 224 to 226 °C

Input `CC(=O)c1nccc(N2C[C@@H](C)N(c3ccnc(C(C)=O)n3)[C@@H](C)C2)n1` , output reported melting point. > 235 °C (dec.)

Input `C[C@@H](O)c1nccc(N2CCn3c(nnc3-c3nc4ccccc4s3)C2)n1` , output reported melting point. 216.5 to 218.5 °C

Input `C[C@@H](O)c1nccc(N2C[C@@H]3C[C@H]2CN3S(=O)(=O)c2ccc(Cl)cc2)n1` , output reported melting point. 83 to 88 °C

Input `C[C@@H]1CN(c2ccnc(C(C)(C)O)n2)C[C@H](C)N1c1ccnc([C@@H](C)O)n1` , output reported melting point. 138 to 140 °C

---

Reported values of melting point for individual entries

Look over these answered cases.
smiles-record: Cc1nc(C)nc(N2[C@H](C)CN(c3ccnc([C@@H](C)O)n3)C[C@@H]2C)n1
melting point: 157 to 159 °C
//
smiles-record: C[C@@H](O)c1nccc(N2CCC(O)(c3ccccc3)CC2)n1
melting point: 114 °C
//
smiles-record: C[C@@H](O)c1nccc(N2C[C@@H]3C[C@H]2CN3S(=O)(=O)c2cccs2)n1
melting point: 84 to 86 °C
//
smiles-record: C[C@@H](O)c1nccc(N2CCc3c(nc(N)nc3-c3ccccc3)C2)n1
melting point: 225 to 228 °C (dec.)
//
smiles-record: C[C@@H](O)c1nccc(N2CCn3c(nnc3-c3ccccc3)C2)n1
melting point: 161 to 164 °C
//
smiles-record: C[C@@H](O)c1nccc(N2CCc3nc(-c4ccncc4)ncc3C2)n1
melting point: 144 to 148 °C
//
smiles-record: O=S(=O)(N1CCCC1)N1CCN(c2ccnc(CO)n2)CC1
melting point: 128 to 131 °C
//
smiles-record: C[C@@H]1CN(c2ccnc(N3CCN(C)CC3)n2)C[C@H](C)N1c1ccnc([C@@H](C)O)n1
melting point: 60 to 70 °C
//
smiles-record: C[C@@H]1CN(c2nc3cccnc3o2)C[C@H](C)N1c1ccnc([C@@H](C)O)n1
melting point: 204 to 207 °C
//
smiles-record: C[C@@H]1CN(c2ccnc([C@@H](C)O)n2)CCN1c1ccnc([C@@H](C)O)n1
melting point: 155 to 157 °C

Input `C[C@@H](O)c1nccc(N2CCc3nc(-c4ccccc4)ncc3C2)n1` , output reported melting point. 128 to 131 °C

Input `C[C@@H](O)c1nccc(N2CCC(=Cc3cccc(Cl)c3)CC2)n1` , output reported melting point. 45 to 55 °C

Input `C[C@@H](O)c1nccc(N2CCN(c3ccnc([C@@H](C)O)n3)[C@@H](C)C2)n1` , output reported melting point. 158 to 160 °C

Input `C[C@@H](O)c1nccc(N2CCC(=C(c3ccccc3)c3ccccc3)CC2)n1` , output reported melting point. 108 to 109 °C

Input `Cc1nc2c(c(Oc3ccccc3)n1)CCN(c1ccnc([C@@H](C)O)n1)C2` , output reported melting point. 156 to 158 °C

Input `Cc1cc(C)nc(N2C[C@@H](C)N(c3ccnc([C@@H](C)O)n3)[C@@H](C)C2)n1` , output reported melting point. 150.5 to 152 °C

Input `C[C@@H](O)c1nccc(N2CCC(=CC(=O)c3ccccc3)CC2)n1` , output reported melting point. 44 to 59 °C

---

Reported values of melting point for individual entries

Look over these answered cases.
smiles-record: C[C@@H](O)c1nccc(N2CCc3nc(C(F)(F)F)ncc3C2)n1
reported-result: 130 to 132 °C
//
smiles-record: C[C@@H]1CN(c2ncnc(N3CCOCC3)n2)C[C@H](C)N1c1ccnc([C@@H](C)O)n1
reported-result: 78 to 82 °C
//
smiles-record: C[C@@H]1CN(c2ccnc([C@@H](C)O)n2)C[C@H](C)N1C(=O)c1cc2cnccc2o1
reported-result: 142 to 143 °C
//
smiles-record: C[C@@H](O)c1nccc(N2CCn3c(nnc3-c3ccc4nccnc4c3)C2)n1
reported-result: 212 to 215 °C
//
smiles-record: C[C@@H](O)c1nccc(N2CCN(Cc3ccccn3)CC2)n1
reported-result: 68 to 70 °C

Input `CC(=O)c1nccc(N2[C@H](C)CN(c3ccnc([C@@H](C)O)n3)C[C@@H]2C)n1` , output reported melting point. 123 to 127 °C

Input `C[C@@H](O)c1nccc(N2CCc3c(c(=O)n(-c4cnc5ccccc5n4)n3C)C2)n1` , output reported melting point. 217 to 219 °C (dec.)

Input `C[C@@H](O)c1nccc(N2CCC(=C(c3ccccc3)c3ccccn3)CC2)n1` , output reported melting point. 98 to 101 °C
